Source: the Human Domainome abundance scans (Beltran et al. 2025)

For each of the variants below, state its abundance fitness.
B1: Connector enhancer of kinase suppressor of ras 2, residues 9 to 71; numbered along this chain, Q8WXI2 (parent)
chain: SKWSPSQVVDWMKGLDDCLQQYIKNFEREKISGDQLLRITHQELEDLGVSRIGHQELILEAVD

Variants of: B1
Measurement Protocol: abundance fitness (aPCA) (normalised: wild type 0, dead -1); higher = more abundant; growth selection in yeast, the domain comes from the species named
Study Conditions: Homo sapiens

Field request: abundance fitness | item: `L15A` -0.652

Field request: abundance fitness | item: `G33I` -0.387

Field request: abundance fitness | item: `N25M` -0.014

Field request: abundance fitness | item: `Q35Y` -0.39

Field request: abundance fitness | item: `L44A` -0.814

Field request: abundance fitness | item: `D17A` -0.137

Field request: abundance fitness | item: `S32G` -0.074

Field request: abundance fitness | item: `E27G` -0.514

Field request: abundance fitness | item: `E43A` -0.143

Field request: abundance fitness | item: `L15P` -0.712

Field request: abundance fitness | item: `K30Y` -0.391

Field request: abundance fitness | item: `R28D` -0.043

Field request: abundance fitness | item: `L57C` -0.394

Field request: abundance fitness | item: `L44R` -0.753

Field request: abundance fitness | item: `D16C` -0.72

Field request: abundance fitness | item: `L15W` -0.266

Field request: abundance fitness | item: `R51W` -0.115

Field request: abundance fitness | item: `E60M` -0.226

Field request: abundance fitness | item: `F26Q` -0.772

Field request: abundance fitness | item: `Q21P` 0.038

Field request: abundance fitness | item: `L15G` -0.675

Field request: abundance fitness | item: `D46N` -0.006
